# experimental_system: human ether-à-go-go-related gene (hERG) potassium channel (human, UniProt Q12809);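 further: peak tail current of the secondary pulse compared with the same well before compound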
# Sequence (Q12809 whole entry, looked up): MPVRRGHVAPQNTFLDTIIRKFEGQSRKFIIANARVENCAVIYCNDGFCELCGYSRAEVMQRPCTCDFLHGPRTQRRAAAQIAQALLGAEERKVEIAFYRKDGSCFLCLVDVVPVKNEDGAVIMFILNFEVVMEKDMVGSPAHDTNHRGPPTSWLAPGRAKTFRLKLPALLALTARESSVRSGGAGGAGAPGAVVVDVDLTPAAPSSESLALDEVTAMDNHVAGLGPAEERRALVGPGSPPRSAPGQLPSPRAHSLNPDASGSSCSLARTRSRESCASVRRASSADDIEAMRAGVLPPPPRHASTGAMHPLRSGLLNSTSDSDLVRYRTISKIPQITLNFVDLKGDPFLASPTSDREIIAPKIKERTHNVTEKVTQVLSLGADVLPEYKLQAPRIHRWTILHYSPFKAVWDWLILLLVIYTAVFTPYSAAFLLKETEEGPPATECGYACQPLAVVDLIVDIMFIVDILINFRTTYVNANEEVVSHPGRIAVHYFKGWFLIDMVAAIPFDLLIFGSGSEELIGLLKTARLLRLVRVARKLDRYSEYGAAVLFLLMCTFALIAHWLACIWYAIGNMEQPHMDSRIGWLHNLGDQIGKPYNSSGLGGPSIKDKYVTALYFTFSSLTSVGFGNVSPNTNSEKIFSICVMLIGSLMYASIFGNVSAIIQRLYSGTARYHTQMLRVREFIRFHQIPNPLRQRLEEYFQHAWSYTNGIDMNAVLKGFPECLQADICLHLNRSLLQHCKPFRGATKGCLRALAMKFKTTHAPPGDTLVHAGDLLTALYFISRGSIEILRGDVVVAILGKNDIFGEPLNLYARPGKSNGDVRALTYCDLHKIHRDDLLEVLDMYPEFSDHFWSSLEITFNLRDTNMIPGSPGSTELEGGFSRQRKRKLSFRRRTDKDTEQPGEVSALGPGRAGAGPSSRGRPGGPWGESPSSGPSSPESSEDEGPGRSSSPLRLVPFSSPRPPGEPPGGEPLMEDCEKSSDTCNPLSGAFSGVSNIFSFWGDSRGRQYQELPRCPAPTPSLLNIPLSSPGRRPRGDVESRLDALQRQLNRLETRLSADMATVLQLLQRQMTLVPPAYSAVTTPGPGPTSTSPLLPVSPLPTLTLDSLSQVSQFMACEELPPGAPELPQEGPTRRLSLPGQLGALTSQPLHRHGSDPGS
# test_summary: primary screen, population patch clamp on CHO cells stably expressing hERG; higher = less effect of the substance
# Experimental: Briefly, Chinese hamster ovary (CHO) cells stably expressing the hERG channel were dislodged from tissue culture flasks and dispensed into PPC plates. […] During the recording, background leak currents were estimated by a 100 ms step to -80 mV from an initial holding potential of -70 mV and subtracted from the subsequent current measurement. The campaign was conducted in two phases using slight differences in recording protocol. […]
The whole screen tested about 310,000 compounds, of which about 14,000 (4.5%) showed an effect of 50% or more. The effect is printed as a negative number. The sample as a whole holds a higher share of strong results than the screen did.
attribute_measured: hERG current change (%, negative = inhibition) at 10uM (%)
Kindly provide the numeric value in % only, without the unit symbol.

See these solved cases before continuing.
molecule: C=C1CCN([C@H](C(=O)NCc2ccccc2)C(C)C)S(=O)(=O)c2ccccc21
measured_value: 3.33

molecule: CCn1cc(C(=O)NCCCN(CC(C)C)CC(C)C)c(=O)c2cc(S(=O)(=O)N(C)C3CCCCC3)ccc21
measured_value: -69.6

molecule: NC(=O)c1ccc[n+](CC(=O)OCCC23CC4CC(CC(C4)C2)C3)c1.[Cl-]
measured_value: 11.8

molecule: N#Cc1c(N)nc2c(c1-c1ccccc1)CCCC2
measured_value: -1.63

We next turn to a different molecule, shown below.
[ask] Please look at this molecule and report its hERG current change (%, negative = inhibition) at 10uM: Cc1cc(C)cc(OCC(=O)NNC(=O)CCN2C(=O)c3ccccc3C2=O)c1
[reply] -14.8

====

# experimental_system: human ether-à-go-go-related gene (hERG) potassium channel (human, UniProt Q12809);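 further: peak tail current of the secondary pulse compared with the same well before compound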
# test_summary: primary screen, population patch clamp on CHO cells stably expressing hERG; higher = less effect of the substance
Out of some 310,000 compounds screened, about 14,000 (4.5%) showed an effect of 50% or more. The effect is printed as a negative number. The sample holds strong results, similar compounds and a random draw of the others, so the mix is not that of the screen.
attribute_measured: hERG current change (%, negative = inhibition) at 10uM (%)
Kindly provide the numeric value in % only, without the unit symbol.

[ask] Please look at this compound and report its hERG current change (%, negative = inhibition) at 10uM: COc1ccc(NC(=O)c2ccc(NC(=O)CSc3nccc(=O)[nH]3)cc2)cc1
[reply] 15.4

[ask] Please look at this compound and report its hERG current change (%, negative = inhibition) at 10uM: COc1ccccc1OCCOc1ccc(/C=C2\C(=N)N3N=C(S(C)(=O)=O)SC3=NC2=O)cc1
[reply] 12

[ask] Please look at this compound and report its hERG current change (%, negative = inhibition) at 10uM: CC(C)C(c1nnnn1Cc1ccc(F)cc1)N1CCN(C(=O)c2ccco2)CC1 (centres unmarked)
[reply] -49.1

[ask] Please look at this compound and report its hERG current change (%, negative = inhibition) at 10uM: Cc1ccc(CN2CCSCC2)cc1
[reply] 17.4

[ask] Please look at this compound and report its hERG current change (%, negative = inhibition) at 10uM: O=C(CCn1c(=O)oc2ccc(Cl)cc21)N1CCN(c2ccccc2)CC1
[reply] -33.8

====

# experimental_system: human ether-à-go-go-related gene (hERG) potassium channel (human, UniProt Q12809);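 further: peak tail current of the secondary pulse compared with the same well before compound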
# test_summary: primary screen, population patch clamp on CHO cells stably expressing hERG; higher = less effect of the substance
Out of some 310,000 compounds screened, about 14,000 (4.5%) showed an effect of 50% or more. Effects have a minus sign here. The sample as a whole holds a higher share of strong results than the screen did.
attribute_measured: hERG current change (%, negative = inhibition) at 10uM (%)
Kindly provide the numeric value in % only, without the unit symbol.

See these solved cases before continuing.
compound: O=C(c1ccc(CS(=O)c2ccccc2Cl)o1)N1CCCCCC1 (stereo not shown)
measured_value: 14.5
--
compound: CC(C)NC(=O)COC(=O)c1ccc(Cl)c(S(N)(=O)=O)c1
measured_value: 18.6

[ask] Please look at this compound and report its hERG current change (%, negative = inhibition) at 10uM: CC1CN(S(=O)(=O)c2ccc(F)cc2)CN1C(=O)N1CCOCC1 (stereo not shown)
[reply] 17.6

[ask] Please look at this compound and report its hERG current change (%, negative = inhibition) at 10uM: CCOc1ccc(C(=O)Nc2ccc(CN3CCOCC3)cc2)cc1Br
[reply] -46.6

[ask] Please look at this compound and report its hERG current change (%, negative = inhibition) at 10uM: CCC/C(=N\NC(=O)c1cccc(C)c1)c1ccccc1
[reply] 2.17

[ask] Please look at this compound and report its hERG current change (%, negative = inhibition) at 10uM: Cc1ccc(C(C)C)c(OCCN(C)C)c1.O=C(O)C(=O)O
[reply] -5.47

[ask] Please look at this compound and report its hERG current change (%, negative = inhibition) at 10uM: Cc1cc(OCC(=O)Nc2ccc(CN3CCOCC3)cc2)ccc1Cl
[reply] -51.8

[ask] Please look at this compound and report its hERG current change (%, negative = inhibition) at 10uM: Cc1cc(C)cc(OCC(=O)Nc2ccc(CN3CCCCC3)cc2)c1
[reply] -43.7

[ask] Please look at this compound and report its hERG current change (%, negative = inhibition) at 10uM: CC(=O)Nc1ccc2nc(NC(=O)C(Cl)(Cl)Cl)sc2c1
[reply] 31.1

[ask] Please look at this compound and report its hERG current change (%, negative = inhibition) at 10uM: COC(=O)c1ccc([C@H]2CC(=O)O2)cc1
[reply] 1.35

[ask] Please look at this compound and report its hERG current change (%, negative = inhibition) at 10uM: Cc1cc(=O)[nH]c(SCc2nc3ncccn3c2Br)n1
[reply] 14.6

[ask] Please look at this compound and report its hERG current change (%, negative = inhibition) at 10uM: CCOc1ccc(NC(=O)c2ccc(NC(=O)c3ccc(CN4CCOCC4)cc3)cc2)cc1
[reply] 9.33

[ask] Please look at this compound and report its hERG current change (%, negative = inhibition) at 10uM: Cc1cc(OCC(=O)Nc2ccc(CN3CCCCC3)cc2)ccc1Cl
[reply] -73.9

[ask] Please look at this compound and report its hERG current change (%, negative = inhibition) at 10uM: Brc1c(CSc2nc3ccccc3o2)nc2ncccn12
[reply] -51.8

[ask] Please look at this compound and report its hERG current change (%, negative = inhibition) at 10uM: O=c1cc(-c2ccccc2)[nH]c2ccccc12
[reply] -11.4

[ask] Please look at this compound and report its hERG current change (%, negative = inhibition) at 10uM: Cc1ccc(OCC(=O)NC2CCCC2)c(C)c1
[reply] 2.93

[ask] Please look at this compound and report its hERG current change (%, negative = inhibition) at 10uM: Cc1ccc(OCCCCNC2CCCCC2)c(C)c1.O=C(O)C(=O)O
[reply] -42.8

[ask] Please look at this compound and report its hERG current change (%, negative = inhibition) at 10uM: Cc1ccc(SCc2nc3ncccn3c2Br)cc1
[reply] -68

[ask] Please look at this compound and report its hERG current change (%, negative = inhibition) at 10uM: O=[N+]([O-])c1ccccc1N(CC1CO1)S(=O)(=O)c1ccccc1 (stereo not shown)
[reply] 2.02

[ask] Please look at this compound and report its hERG current change (%, negative = inhibition) at 10uM: Cc1ccc(C(C)C)c(OCCCn2ccnc2C)c1.O=C(O)C(=O)O
[reply] -63.8

[ask] Please look at this compound and report its hERG current change (%, negative = inhibition) at 10uM: O=[N+]([O-])c1ccc2sc(SCc3nc4ccccn4c3Br)nc2c1
[reply] 20.2

[ask] Please look at this compound and report its hERG current change (%, negative = inhibition) at 10uM: CCOC(=O)C1CCN(Cc2ccc(O)c(OC)c2)CC1
[reply] -13.7
